# System: TRPM8-wt channel (Mus musculus, UniProt Q8R4D5)
# Construct: The full length cDNA encoding mouse TRPM8 (NM_134252) in pcDNA5; expressed in transfected cells; host or cells: HEK293
# Sequence (Q8R4D5 whole entry): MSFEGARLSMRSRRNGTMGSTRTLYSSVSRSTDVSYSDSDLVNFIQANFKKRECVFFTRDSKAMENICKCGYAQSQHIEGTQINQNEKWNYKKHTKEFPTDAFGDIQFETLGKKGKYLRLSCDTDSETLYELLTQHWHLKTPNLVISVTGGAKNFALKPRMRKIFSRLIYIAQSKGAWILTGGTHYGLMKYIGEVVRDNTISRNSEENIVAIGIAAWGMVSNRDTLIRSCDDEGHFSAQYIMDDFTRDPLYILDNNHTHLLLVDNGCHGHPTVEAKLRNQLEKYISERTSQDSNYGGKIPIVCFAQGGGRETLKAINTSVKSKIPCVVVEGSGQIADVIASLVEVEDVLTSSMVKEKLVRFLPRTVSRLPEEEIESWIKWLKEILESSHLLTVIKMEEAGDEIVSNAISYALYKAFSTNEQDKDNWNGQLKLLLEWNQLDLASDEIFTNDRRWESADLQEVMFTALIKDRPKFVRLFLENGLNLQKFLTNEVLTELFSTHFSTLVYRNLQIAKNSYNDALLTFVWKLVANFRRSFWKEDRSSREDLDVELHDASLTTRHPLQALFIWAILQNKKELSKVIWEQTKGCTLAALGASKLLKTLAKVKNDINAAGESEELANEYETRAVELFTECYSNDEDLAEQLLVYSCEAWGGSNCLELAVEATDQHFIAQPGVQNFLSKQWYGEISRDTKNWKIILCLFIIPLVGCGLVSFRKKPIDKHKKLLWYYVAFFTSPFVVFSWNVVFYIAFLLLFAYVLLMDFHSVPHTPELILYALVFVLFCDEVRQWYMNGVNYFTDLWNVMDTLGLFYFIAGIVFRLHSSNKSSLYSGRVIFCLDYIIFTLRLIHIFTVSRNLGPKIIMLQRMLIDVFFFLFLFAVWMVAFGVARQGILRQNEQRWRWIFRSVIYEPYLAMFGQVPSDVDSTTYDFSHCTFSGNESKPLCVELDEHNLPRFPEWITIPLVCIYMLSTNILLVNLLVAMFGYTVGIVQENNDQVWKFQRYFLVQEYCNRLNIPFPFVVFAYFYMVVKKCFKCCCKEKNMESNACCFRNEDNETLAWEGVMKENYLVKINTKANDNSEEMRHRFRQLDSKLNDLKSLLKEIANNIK
# Assay Protocol: Calcium imaging (Fura-2) of HEK293 cells expressing TRPM8-wt
# Format: cell-based
# Assay Context: cold-activated TRPM8-wt, calcium imaging (CI), this work
Measurement Name: IC50 (µM)
Number in µM, nothing else.

The reported IC50 of the compound Oc1cc2c(cc1O)CN(C(=S)NCCc1ccc(Cl)cc1)CCC2 [Capsazepine] was 12
